Consider the following compounds; for each one, report its DC50.
Biological target: androgen receptor (Homo sapiens, UniProt P10275, T878A)
Construct: host or cells: LNCaP.FGC
Sequence (P10275 whole entry T878A): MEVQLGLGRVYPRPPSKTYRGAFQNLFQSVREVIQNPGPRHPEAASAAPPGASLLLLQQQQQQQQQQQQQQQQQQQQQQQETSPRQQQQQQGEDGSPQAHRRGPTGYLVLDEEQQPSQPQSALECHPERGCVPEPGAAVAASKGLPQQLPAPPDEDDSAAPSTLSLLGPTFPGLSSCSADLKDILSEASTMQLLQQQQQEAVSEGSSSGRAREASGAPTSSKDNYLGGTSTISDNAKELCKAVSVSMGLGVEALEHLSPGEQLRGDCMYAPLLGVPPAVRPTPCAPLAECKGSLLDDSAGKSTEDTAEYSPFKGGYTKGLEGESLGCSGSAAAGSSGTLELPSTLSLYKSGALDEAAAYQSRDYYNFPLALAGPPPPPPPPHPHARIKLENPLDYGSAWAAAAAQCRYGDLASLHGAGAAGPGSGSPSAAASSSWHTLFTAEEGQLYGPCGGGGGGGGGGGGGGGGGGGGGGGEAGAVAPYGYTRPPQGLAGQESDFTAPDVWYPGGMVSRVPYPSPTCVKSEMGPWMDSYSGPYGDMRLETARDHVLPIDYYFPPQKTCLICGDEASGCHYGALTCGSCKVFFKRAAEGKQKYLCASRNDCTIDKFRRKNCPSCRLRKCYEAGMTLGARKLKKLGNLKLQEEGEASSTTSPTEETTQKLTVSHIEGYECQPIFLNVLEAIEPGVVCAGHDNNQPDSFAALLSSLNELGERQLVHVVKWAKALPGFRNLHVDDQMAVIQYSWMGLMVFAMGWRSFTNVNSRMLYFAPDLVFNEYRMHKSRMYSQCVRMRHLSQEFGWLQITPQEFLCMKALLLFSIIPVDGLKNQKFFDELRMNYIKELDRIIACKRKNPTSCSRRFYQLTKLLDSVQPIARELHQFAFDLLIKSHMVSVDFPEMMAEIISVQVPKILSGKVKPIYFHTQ
Sequence (Q96SW2 whole entry partner): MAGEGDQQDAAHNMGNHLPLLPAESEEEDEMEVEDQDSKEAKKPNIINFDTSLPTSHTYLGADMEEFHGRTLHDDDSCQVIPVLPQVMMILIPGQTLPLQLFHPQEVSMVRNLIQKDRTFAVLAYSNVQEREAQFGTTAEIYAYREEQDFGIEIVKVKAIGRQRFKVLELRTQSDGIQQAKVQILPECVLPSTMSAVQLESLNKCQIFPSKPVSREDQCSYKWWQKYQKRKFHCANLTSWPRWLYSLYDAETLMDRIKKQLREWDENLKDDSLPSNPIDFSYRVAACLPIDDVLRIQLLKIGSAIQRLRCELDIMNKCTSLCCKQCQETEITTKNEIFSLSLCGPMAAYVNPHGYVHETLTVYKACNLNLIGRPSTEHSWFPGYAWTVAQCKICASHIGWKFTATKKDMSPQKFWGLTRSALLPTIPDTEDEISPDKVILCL
Experiment: Androgen receptor degradation assay using Western blot analysis
Assay type: cell-based
Settings: read-out: AR DC50 (concentration needed for 50% AR degradation); LNCaP.FGC cells, serial 10x dilutions from 100 nM

Observe how each entry below is paired with its result.
{"Compound": "CCn1c2c(c3ccc(OCCN4C5CCC4CN(c4ccc(C(=O)N[C@H]6CC[C@H](Oc7ccc(C#N)c(Cl)c7)CC6)nn4)C5)cc31)C(=O)N(C1CCC(=O)NC1=O)C2=O (some centres unmarked)", "Assay Value": "25 to 100 nM"}
{"Compound": "CCn1c2c(c3ccc(OCCCN4CCN(c5ccc(C(=O)N[C@H]6CC[C@H](Oc7ccc(C#N)c(Cl)c7)CC6)nn5)C[C@H]4C)cc31)C(=O)N(C1CCC(=O)NC1=O)C2=O (some centres unmarked)", "Assay Value": "25 to 100 nM"}
{"Compound": "CCn1c2c(c3ccc(OCCOCCN4CCN(c5ccc(C(=O)N[C@H]6CC[C@H](N(C)c7ccc(C#N)c(Cl)c7)CC6)nn5)CC4)cc31)C(=O)N(C1CCC(=O)NC1=O)C2=O (some centres unmarked)", "Assay Value": "10 to 25 nM"}
{"Compound": "CCn1c2c(c3ccc(OCCCOC4CCN(c5ccc(C(=O)N[C@H]6CC[C@H](Oc7ccc(C#N)c(Cl)c7)CC6)nn5)CC4)cc31)C(=O)N(C1CCC(=O)NC1=O)C2=O (some centres unmarked)", "Assay Value": "25 to 100 nM"}

Here is the next item to consider.
DC50 lookup needed for CCn1c2c(c3ccc(OCCN4CCN(c5ccc(C(=O)N[C@H]6CC[C@H](Oc7ccc(C#N)c(Cl)c7)CC6)cn5)CC4)cc31)C(=O)N(C1CCC(=O)NC1=O)C2=O (some centres unmarked) , thanks.
25 to 100 nM

###

Consider the following molecules; for each one, report its remaining activity at 0.1 µM.
Biological target: androgen receptor (Homo sapiens, UniProt P10275, T878A)
Construct: host or cells: LNCaP.FGC
Assay: Androgen receptor degradation assay using Western blot analysis
Assay type: cell-based
Settings: 24 h, read-out: Androgen Receptor Remaining (%), LNCaP.FGC cells, 100 nM, 24 hr, normalized to GAPDH, untreated cells = 100%

Observe how each entry below is paired with its result.
{"Molecule": "CCn1c2c(c3ccc(OCCCN4[C@H](C)CN(c5ccc(C(=O)N[C@H]6CC[C@H](Oc7ccc(C#N)c(Cl)c7)CC6)nn5)C[C@@H]4C)cc31)C(=O)N(C1CCC(=O)NC1=O)C2=O (stereo partly drawn)", "remaining activity at 0.1 µM": "78%"}
{"Molecule": "CCn1c2c(c3ccc(OCCCN4CCC5(CCN(c6ccc(C(=O)N[C@H]7CC[C@H](Oc8ccc(C#N)c(Cl)c8)CC7)nn6)C5)C4)cc31)C(=O)N(C1CCC(=O)NC1=O)C2=O (stereo partly drawn)", "remaining activity at 0.1 µM": "7%"}

Here is the next item to consider.
remaining activity at 0.1 µM lookup needed for CCn1c2c(c3ccc(OCCCCN4C5CCC4CN(c4ccc(C(=O)N[C@H]6CC[C@H](Oc7ccc(C#N)c(Cl)c7)CC6)nn4)C5)cc31)C(=O)N(C1CCC(=O)NC1=O)C2=O (stereo partly drawn) , thanks.
44%

###

Consider the following compounds; for each one, report its DC50.
Target: androgen receptor (Homo sapiens, UniProt P10275, T878A)
Construct: host or cells: LNCaP.FGC
Assay: Androgen receptor degradation assay using Western blot analysis
Type: cell-based
Conditions: read-out: AR DC50 (concentration needed for 50% AR degradation); LNCaP.FGC cells, serial 10x dilutions from 100 nM

Observe how each entry below is paired with its result.
{"Compound": "CCn1c2c(c3ccc(OCCN4CCN(c5ccc(C(=O)N[C@H]6CC[C@H](Oc7ccc(C#N)c(Cl)c7)CC6)nn5)C[C@H]4C)cc31)C(=O)N(C1CCC(=O)NC1=O)C2=O (stereo partly shown) [Compound 73]", "DC50": "25 to 100 nM"}
{"Compound": "CCn1c2c(c3ccc(OCCCOC4CCN(c5ccc(C(=O)N[C@H]6CC[C@H](N(C)c7ccc(C#N)c(Cl)c7)CC6)nn5)CC4)cc31)C(=O)N(C1CCC(=O)NC1=O)C2=O (stereo partly shown) [Compound 155]", "DC50": "10 to 25 nM"}
{"Compound": "CCn1c2c(c3ccc(OCCCCN4CCN(c5ccc(C(=O)N[C@H]6CC[C@H](N(C)c7ccc(C#N)c(Cl)c7)CC6)nn5)CC4)cc31)C(=O)N(C1CCC(=O)NC1=O)C2=O (stereo partly shown) [Compound 91]", "DC50": "10 to 25 nM"}

Would you be so kind as to report DC50 for each listed record?
1. CCn1c2c(c3ccc(OCC(C)CN4CCN(c5ccc(C(=O)N[C@H]6CC[C@H](N(C)c7ccc(C#N)c(Cl)c7)CC6)nn5)CC4)cc31)C(=O)N(C1CCC(=O)NC1=O)C2=O (stereo partly shown) [Compound 193]
2. CCn1c2c(c3ccc(OCC(=O)N4CCC5(CCN(c6ccc(C(=O)N[C@H]7CC[C@H](Oc8ccc(C#N)c(Cl)c8)CC7)nn6)C5)C4)cc31)C(=O)N(C1CCC(=O)NC1=O)C2=O (stereo partly shown) [Compound 136]
3. CCn1c2c(c3ccc(OCCCN4CCN(c5ncc(C(=O)N[C@H]6CC[C@H](Oc7ccc(C#N)c(Cl)c7)CC6)cn5)CC4)cc31)C(=O)N(C1CCC(=O)NC1=O)C2=O (stereo partly shown) [Compound 220]
4. CCn1c2c(c3ccc(OCCOC4CC5(CCN(c6ccc(C(=O)N[C@H]7CC[C@H](N(C)c8ccc(C#N)c(Cl)c8)CC7)nn6)C5)C4)cc31)C(=O)N(C1CCC(=O)NC1=O)C2=O (stereo partly shown) [Compound 164]
5. CCn1c2c(c3ccc(OCC(C)CN4CCN(c5ccc(C(=O)N[C@H]6CC[C@H](Oc7ccc(C#N)c(Cl)c7)CC6)nn5)CC4)cc31)C(=O)N(C1CCC(=O)NC1=O)C2=O (stereo partly shown) [Compound 192]
6. CC(COc1ccc2c3c(n(C)c2c1)C(=O)N(C1CCC(=O)NC1=O)C3=O)CN1CCN(c2ccc(C(=O)N[C@H]3CC[C@H](N(C)c4ccc(C#N)c(Cl)c4)CC3)nn2)CC1 (stereo partly shown) [Compound 189]

1. 25 to 100 nM
2. 25 to 100 nM
3. 25 to 100 nM
4. 10 to 25 nM
5. 25 to 100 nM
6. 10 to 25 nM

DC50 lookup needed for CCn1c2c(c3ccc(OC4CCN(CC5CCN(c6ccc(C(=O)N[C@H]7C(C)(C)[C@@H](Oc8ccc(C#N)c(Cl)c8)C7(C)C)nn6)CC5)CC4)cc31)C(=O)N(C1CCC(=O)NC1=O)C2=O (stereo partly shown) [Compound 213] , thanks.
10 to 25 nM

###

Target: androgen receptor (Homo sapiens, UniProt P10275, T878A)
Construct: host or cells: LNCaP.FGC
Assay: Androgen receptor degradation assay using Western blot analysis
Assay type: cell-based
Conditions: 24 h, read-out: Androgen Receptor Remaining (%), LNCaP.FGC cells, 100 nM, 24 hr, normalized to GAPDH, untreated cells = 100%
Consider the following compounds; for each one, report its remaining activity at 0.1 µM.
Give bare numbers, in %.

{"Compound": "CCn1c2c(c3ccc(OCCN4CCCN(c5ccc(C(=O)N[C@H]6CC[C@H](Oc7ccc(C#N)c(Cl)c7)CC6)nn5)CC4)cc31)C(=O)N(C1CCC(=O)NC1=O)C2=O (some centres unmarked)", "Measured Target": "androgen receptor (Homo sapiens, UniProt P10275, T878A)", "Result Unit": "%", "remaining activity at 0.1 µM": 42}

Would you be so kind as to report remaining activity at 0.1 µM for each listed record?
1. CCn1c2c(c3ccc(OCCCN4CCC5(CC4)CN(c4ccc(C(=O)N[C@H]6CC[C@H](Oc7ccc(C#N)c(Cl)c7)CC6)nn4)C5)cc31)C(=O)N(C1CCC(=O)NC1=O)C2=O (some centres unmarked)
2. CCn1c2c(c3ccc(NC(=O)CN4CCN(c5ccc(C(=O)N[C@H]6C(C)(C)[C@H](Oc7ccc(C#N)c(Cl)c7)C6(C)C)cn5)CC4)cc31)C(=O)N(C1CCC(=O)NC1=O)C2=O (some centres unmarked)
3. CCn1c2c(c3ccc(OCCN4CCN(c5ccc(C(=O)N[C@H]6CC[C@H](Oc7ccc(C#N)c(Cl)c7)CC6)nn5)CC4)cc31)C(=O)N(C1CCC(=O)NC1=O)C2=O (some centres unmarked)
4. CCn1c2c(c3ccc(OCCCN4CCN(c5ccc(C(=O)N[C@H]6CC[C@H](N(C)c7ccc(C#N)c(Cl)c7)CC6)nn5)CC4)cc31)C(=O)N(C1CCC(=O)NC1=O)C2=O (some centres unmarked)

[20, 4, 27, 57]
